target.of.assay: human C5aR (CD88) (human, UniProt P21730 1-350)
Sequence (looked up): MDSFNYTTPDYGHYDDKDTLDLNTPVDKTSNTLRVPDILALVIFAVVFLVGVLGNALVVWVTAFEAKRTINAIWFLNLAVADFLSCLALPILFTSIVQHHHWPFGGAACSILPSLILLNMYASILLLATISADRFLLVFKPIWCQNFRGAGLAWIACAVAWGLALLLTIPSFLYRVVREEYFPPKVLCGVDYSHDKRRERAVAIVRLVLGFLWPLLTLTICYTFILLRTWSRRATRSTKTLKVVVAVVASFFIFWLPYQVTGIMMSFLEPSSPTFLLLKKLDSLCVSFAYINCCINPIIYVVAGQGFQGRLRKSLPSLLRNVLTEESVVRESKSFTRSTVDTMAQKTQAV
test.details: cell-based or functional assay
value.kind: IC50 activity group, enzyme release assay

                                  substance  obs_value
0  Ac-Phe-Cit-Pro-cha-Bta-Phe-NH2 (peptide)   < 200 nM
1  Ac-Phe-Dab-Aze-cha-Bta-Phe-NH2 (peptide)    < 50 nM
2  Ac-Phe-Orn-Aze-cha-Pcf-Phe-NH2 (peptide)  < 2000 nM
3  Ac-Phe-Dab-Aze-hle-Bta-Phe-NH2 (peptide)    < 50 nM
4  Ac-Mff-Orn-Pro-cha-Bta-Phe-NH2 (peptide)   < 200 nM

Query: IC50 activity group, enzyme release assay; subject: Ac-Phe-Orn-Aze-hle-Bta-Phe-NH2 (peptide) < 50 nM

Query: IC50 activity group, enzyme release assay; subject: CH3-SO2-Phe-Orn-Aze-cha-Bta-Phe-NH2 (peptide) < 50 nM

Query: IC50 activity group, enzyme release assay; subject: Ac-Thi-Orn-Pro-cha-Bta-Thi-NH2 (peptide) < 50 nM

Query: IC50 activity group, enzyme release assay; subject: Ac-Phe-Orn-Chy-cha-Bta-Phe-NH2 (peptide) < 200 nM

Query: IC50 activity group, enzyme release assay; subject: Ac-Phe-Orn-Aze-cha-Mcf-Phe-NH2 (peptide) < 200 nM

Query: IC50 activity group, enzyme release assay; subject: Ac-Phe-[Orn-Hyp-Mmf-Trp-Phe] (peptide) < 200 nM
